Entries and their measured apparent KD of MS2 coat protein follow.
system: MS2 coat protein; assay: apparent KD of MS2 coat protein; designed switch direction (-1 OFF switch, 1 ON switch): 1; higher = weaker reporter binding; conditions: Eterna round: R95; input ligand: microRNA oligo, concentration not stated
Number in nM, nothing else.

# input Name the reported apparent KD of MS2 coat protein value associated with the sequence CCGAUGAUAGGACAGGAUAUGACUGUCGUCACAUGAGGAUCACCCAUGUCCCGGCAAUGCCACCGUUAGAAGGGUCCUAUCUCGG [Orraais] (puzzle: Same State 2)
# output 11.9

# input I would be grateful if you could share the reported apparent KD of MS2 coat protein for AGGCAAGCUUUUUGCUGGUAUGGAGGAUAACAUGAGGAUCACCCAUGUAUUGGAGGUGUUGUGGAUUUGAGAAAGAA [JR_SHM208A_Sub004] (puzzle: Sensor for hsa-mir-208a) .
# output 94.6

# input Quick one: apparent KD of MS2 coat protein for AGCGAGAUAGGCAAGGAUAUGCUGGGUUGCACAUGAGGAUCACCCAUGUCAUUGGUUAUGGCCGAGCAGAAGGUGCAUUCUCUUU [ak bound state near shape] (puzzle: Same State 2) ?
# output 75.6

# input Which apparent KD of MS2 coat protein reading was recorded for the sequence UAGAGAGGAAGCGAGGAUAUCGUGUUAGGUACAUGAGGAUCACCCAUGUUUUAAGUAGAGAUAGGCGAGAAGGCGCAGGAGAAGA [JR_SS2_Sub089] (puzzle: Same State 2) ?
# output 20.1

# input Look up apparent KD of MS2 coat protein: UGAAAACAUGAGGAUCACCCAUGUAUUAUUAUGGGAGGAUAUGGGAAUUAAUUAAUUAAACCAGAAGGCCUAAAGU [Mat - Same State 1 - D89] (puzzle: Same State 1)
# output 57.2

# input Could you tell me which apparent KD of MS2 coat protein is on file for AACAAUCUAUCUGAGGAUAUCAUGAAAUAAACAUGAGGAUCACCCAUGUGCAGGAAAAUUGCAUAUGAGAAGGCAGAUAGAUUGA [salish99_ss2_r3_044] (puzzle: Same State 2) ?
# output 771

# input Report apparent KD of MS2 coat protein for ACCCAAAGUAUAUGGGAACGAGCUUUUUAACAUGAGGAUCACCCAUGUACUCGUCUUAUAAGCAGUCGAAAGACUGC [Sensor 100 - 3] (puzzle: Sensor for hsa-mir-208a) please.
# output 19.2

# input Consider the sequence shown here: UAUAAACAUGAGGAUCACCCAUGUAAUAAUAUGGGAGGAUAUCAGAAUGUAUGUAUGUAAUGAGAAGGCCUAAUAU [Mat - Same State 1 - Mod of Eli - D70] (puzzle: Same State 1) What is its recorded apparent KD of MS2 coat protein?
# output 268

# input What value of apparent KD of MS2 coat protein has been reported for the following sequence? AGAGAACAUGAGGAUCACCCAUGUAGGAUGGGCAUAGGAUAUAGAAGGAUGAGGGAGAAACUAGAAGGAUGAUGGA [JR_SS1_Sub077] (puzzle: Same State 1)
# output 152

# input What does the record list as apparent KD of MS2 coat protein for AUCAAUCUAUCUGAGGAUAUCAUGAAAUAAACAUGAGGAUCACCCAUGUGCAGGAAAACUGCAUAUGAGAAGGCAGAUAGAUUGA [salish99_ss2_r3_019] (puzzle: Same State 2) ?
# output 323

Reference source: the supplement of paper PMC9170038
